Property: mass density; scope: individual molecules
- study-conditions: 298.15 K; 101.33 kPa; Liquid; Vibrating tube method
# unit: kg/m3 | format: bare number

Before answering, review these 2 worked examples.
CCCCCCn1cc[n+](C)c1.F[P-](F)(F)(F)(F)F [1-hexyl-3-methylimidazolium hexafluorophosphate]
1292
CCCCn1cc[n+](C)c1.F[P-](F)(F)(F)(F)F [1-butyl-3-methylimidazolium hexafluorophosphate]
1367

Task: Item CCCCn1cc[n+](C)c1.O=S(=O)([O-])O [1-butyl-3-methylimidazolium hydrogen sulfate] has what recorded mass density?
Output: 1224

Task: Item COS(=O)(=O)[O-].Cn1cc[n+](C)c1 [1,3-dimethylimidazolium methylsulfate] has what recorded mass density?
Output: 1329

Task: Item CCCC[n+]1ccc(C)cc1.F[B-](F)(F)F [1-butyl-4-methylpyridinium tetrafluoroborate] has what recorded mass density?
Output: 1190

Task: Item CCCCCCCC[n+]1ccn(C)c1.F[P-](F)(F)(F)(F)F [1-octyl-3-methylimidazolium hexafluorophosphate] has what recorded mass density?
Output: 1234

* * *

- study-conditions: 333.15 K; 101.33 kPa; Liquid; Vibrating tube method
Property: mass density; scope: individual compounds
# unit: kg/m3 | format: bare number

Before answering, review these 2 worked examples.
CC(C)C[P+](C)(CC(C)C)CC(C)C.Cc1ccc(S(=O)(=O)[O-])cc1 [triisobutylmethylphosphonium p-toluenesulfonate]
1047
COS(=O)(=O)[O-].Cn1cc[n+](C)c1 [1,3-dimethylimidazolium methylsulfate]
1302

Task: Item CCCCn1cc[n+](C)c1.O=S(=O)([O-])O [1-butyl-3-methylimidazolium hydrogen sulfate] has what recorded mass density?
Output: 1201

Task: Item CCCCCCCC[n+]1ccn(C)c1.[Cl-] [1-methyl-3-octylimidazolium chloride] has what recorded mass density?
Output: 989

Task: Item CCCCCCn1cc[n+](C)c1.F[P-](F)(F)(F)(F)F [1-hexyl-3-methylimidazolium hexafluorophosphate] has what recorded mass density?
Output: 1264

Task: Item CCCCCCCC[n+]1ccn(C)c1.F[P-](F)(F)(F)(F)F [1-octyl-3-methylimidazolium hexafluorophosphate] has what recorded mass density?
Output: 1208

Task: Item CCn1cc[n+](C)c1.COS(=O)(=O)[O-] [1-ethyl-3-methylimidazolium methylsulfate] has what recorded mass density?
Output: 1268

Task: Item CCCC[n+]1ccc(C)cc1.F[B-](F)(F)F [1-butyl-4-methylpyridinium tetrafluoroborate] has what recorded mass density?
Output: 1166

Task: Item CCCCn1cc[n+](C)c1.F[P-](F)(F)(F)(F)F [1-butyl-3-methylimidazolium hexafluorophosphate] has what recorded mass density?
Output: 1339

* * *

- procedure-details: refractive index (Na D-line) (dimensionless)
- study-conditions: 298.15 K; 101.33 kPa; Liquid; Standard Abbe refractometry
Property: refractive index; scope: individual compounds
Give the value as a plain number.

Before answering, review these 3 worked examples.
CCn1cc[n+](C)c1.COS(=O)(=O)[O-] [1-ethyl-3-methylimidazolium methylsulfate]
1.4741
CC(C)C[P+](C)(CC(C)C)CC(C)C.Cc1ccc(S(=O)(=O)[O-])cc1 [triisobutylmethylphosphonium p-toluenesulfonate]
1.5185
CCCC[n+]1ccc(C)cc1.F[B-](F)(F)F [1-butyl-4-methylpyridinium tetrafluoroborate]
1.4507

Task: Item CCCCCCCC[n+]1ccn(C)c1.F[P-](F)(F)(F)(F)F [1-octyl-3-methylimidazolium hexafluorophosphate] has what recorded refractive index?
Output: 1.4217

Task: Item CCCCn1cc[n+](C)c1.O=S(=O)([O-])O [1-butyl-3-methylimidazolium hydrogen sulfate] has what recorded refractive index?
Output: 1.5043
